Tested on: CAKI-1
Test: NCI tumour cell line growth inhibition, 48 h
Activity calls are given as the source filed them. Rule as the data show it: active = GI50 up to about 1.1 µM and inactive = higher.
Use one of these outcomes when replying: T for active, F for inactive

# COMPOUND, TARGET_ENTITY, CLASS
records = [
    ("COC(=O)c1ccc(NC(=O)O/N=C(\\Cl)C(C)C)cc1", "CAKI-1", "F"),
    ("CC1OC(n2cc(Cl)c(=O)[nH]c2=O)C=C(OC(=O)c2ccccc2)C1=O (centres undefined)", "CAKI-1", "F"),
    ("CCOC(=O)C(C)(C)Oc1ccc(Cl)cc1 [CLOFIBRATE]", "CAKI-1", "F"),
    ("O=C(O)CSCc1cc2c(O)c(c1)Cc1cc(CSCC(=O)O)cc(c1O)Cc1cc(CSCC(=O)O)cc(c1O)Cc1cc(CSCC(=O)O)cc(c1O)C2", "CAKI-1", "F"),
    ("CCCCCCCCCCCCc1ccc(S(=O)(=O)O)cc1", "CAKI-1", "F"),
    ("O=C1c2c(Br)sc(Br)c2[C@@H](NC(=O)C(F)(F)F)C1Br (some centres undefined)", "CAKI-1", "F"),
    ("O=C(NCCCCCCCCCCCCNC(=O)c1cccc2ccccc12)c1cccc2ccccc12", "CAKI-1", "F"),
    ("CC1(C)Cc2c(sc3[nH]c(=S)[nH]c(=S)c23)CS1", "CAKI-1", "F"),
    ("C=CCC1([C@H](C)[C@@H](OC(C)=O)c2cc(OC)c(OC)c(OC)c2)C[C@@H](OC)CCC1=O (some centres undefined)", "CAKI-1", "F"),
    ("CC1CCC(O)C(C(O)CC2CC(=O)N(C)C(=O)C2)C1 (centres undefined)", "CAKI-1", "F"),
]

Q: Hi, do you know how `CC1=NN(C(=O)c2ccncc2)C(=O)C1` came out in this test?
Ans: F

Q: Hi, do you know how `COc1ccc(C2=C(Cl)C(=O)O/C2=C\c2ccc(OC)c(Br)c2)cc1Cl` came out in this test?
Ans: F

Q: Hi, do you know how `COc1ccc(OC)c(NC(=O)C(=O)Nn2c(S)nc3ccccc3c2=O)c1` came out in this test?
Ans: F

----------
Tested on: SK-MEL-2
Experiment: NCI tumour cell line growth inhibition, 48 h
Active and inactive are the calls of the source. Cut-off read from the data, not from the text of the source: active = GI50 up to about 1.1 µM and inactive = higher.
I'd be grateful if you could share measured GI50 for these entries.

# example entries with known answers
# MOLECULE, GI50
measured = [
    ("CO[C@H]1C[C@](C)(O)Cc2cc3c(c(O)c21)C(=O)c1c(O)cc2c(c1C3=O)O[C@@H]1O[C@@]2(C)[C@H](O)[C@@H](N(C)C)[C@@H]1O", "2.43 µM (inactive)"),
    ("CC1=NN(C(=O)c2ccncc2)C(=O)C1/N=N/c1ccc2ccccc2c1 (centres undefined)", "14.7 µM (inactive)"),
    ("COc1ccc(/C=C2\\CCCCCC2=O)cc1", "> 100 µM (inactive)"),
]

Considering `C#CC[C@@]12CC(=O)C[C@@H]1CCC1(C2)OCCO1.C#CC[C@]12CC(=O)CC[C@H]1CC(=O)C2` , its GI50 with SK-MEL-2 was recorded as > 100 µM (inactive)

----------
Test system: KM12
Test: NCI tumour cell line growth inhibition, 48 h
Calls of active or inactive are those of the source. No stated cut-off is given here; in the data, active = GI50 up to about 1.1 µM and inactive = higher. Where a SMILES comes first, the peptide text is derived from it. [ ]: non-standard residue; d: D form. The star is where a group is joined. Bn2Val = CC(C)[C@@H](C(=O)*)N(Cc1ccccc1)Cc1ccccc1; NH(4-F-benzyl) = Fc1ccc(CN*)cc1; NMeV = CN[C@H](C(=O)O)C(C)C; dNMeA = CN[C@H](C)C(=O)O
Use one of these outcomes when replying: 1 (yes) for active, 0 (no) for inactive

Use these answered entries as a reference point.
# MOLECULE, CLASS
measured = [
    ("CC(C)[C@H](NC(=O)[C@H](C(C)C)N(Cc1ccccc1)Cc1ccccc1)C(=O)N(C)[C@H](C(=O)N1CCC[C@H]1C(=O)N(C)[C@H](C)C(=O)NCc1ccc(F)cc1)C(C)C (Bn2Val-V[NMeV]P[dNMeA]-{NH(4-F-benzyl)})", "0 (no)"),
    ("CC(C)(C)OC(=O)[N+](=N)C(=O)C1CCC(=O)N1C(=O)OCc1ccccc1 (stereo not given)", "0 (no)"),
    ("CC(=O)OCC(OC(C)=O)C1C[C@H]2O[C@@H]3[C@H](C[C@H]2O1)O[C@@]1(C[C@@H]3C)C[C@H](C)[C@@H]2O[C@]3(C[C@@H]2O1)C[C@H]1O[C@H]2[C@H](C)[C@H]4OC(=O)C[C@H]5CC[C@@H]6OC7[C@H]8O[C@]9(CC[C@H]%10CC(=O)[C@H](CC[C@H]%11C[C@@H](C)C(=O)C(C[C@@H]4O[C@H]2C[C@H]1O3)O%11)O%10)CC8O[C@@H]7[C@@H](O9)[C@H]6O5 (stereo not given in full)", "1 (yes)"),
    ("CC1(C)OC(=S)N(c2ccccc2)C12C=Cc1cc3ccccc3nc1S2 (stereo not given)", "0 (no)"),
    ("N#CC1=C(S)N(C2OC(CO)C(O)C(O)C2O)C(c2ccccc2)=CC1c1cccs1 (stereo not given)", "0 (no)"),
    ("CC(C)(C)c1cc(C2COC(c3cc(C(C)(C)C)c(O)c(C(C)(C)C)c3)CO2)cc(C(C)(C)C)c1O (stereo not given)", "0 (no)"),
]

Q: Hi, do you know how CC(=O)NC1C(OC(C)C(=O)NC(C(=O)NC(CCC(=O)NCCCNC2c3ccccc3Nc3cccc([N+](=O)[O-])c32)C(N)=O)C(C)C)C(O)C(CO)OC1(C)OCc1ccccc1 (stereo not given) came out in this test?
Ans: 0 (no)

Q: Hi, do you know how `O=Cc1cc(C(=O)OCc2ccccc2)n(S(=O)(=O)c2ccccc2)c1` came out in this test?
Ans: 0 (no)

Q: Hi, do you know how `O=[N+]([O-])/C(Cl)=C/C(=C1/Nc2ccccc2O1)[N+](=O)[O-]` came out in this test?
Ans: 0 (no)

Q: Hi, do you know how CCOC(=O)C1Oc2ccc([N+](=O)[O-])c3c2C1(O)CCC3 (stereo not given) came out in this test?
Ans: 0 (no)

Q: Hi, do you know how `CO[C@H]1C[C@](C)(O)Cc2cc3c(c(O)c21)C(=O)c1c(O)cc2c(c1C3=O)O[C@@H]1O[C@@]2(C)[C@H](O)[C@@H](N(C)C)[C@@H]1O` came out in this test?
Ans: 0 (no)

Q: Hi, do you know how `COc1cc(Nc2nc3ccc(C(F)(F)F)cc3nc2-c2ccccc2)cc(OC)c1OC` came out in this test?
Ans: 0 (no)

Q: Hi, do you know how `Cc1cc(S(=O)(=O)O)ccc1/N=N/c1c(O)ccc2ccccc12` came out in this test?
Ans: 0 (no)

Q: Hi, do you know how COC1=CC(=O)C2C(C1=O)C(c1ccc(Cl)cc1)[C@@H]2C (stereo not given in full) came out in this test?
Ans: 0 (no)

Q: Hi, do you know how CC1=CC(C)(c2c[nH]c3ccccc23)CC(C)(C)c2c1[nH]c1ccccc21 (stereo not given) came out in this test?
Ans: 0 (no)

Q: Hi, do you know how `Cn1c(=O)c2c(nc3n2CCC(=O)N3CCCCl)n(C)c1=O` came out in this test?
Ans: 0 (no)

Q: Hi, do you know how CC1=C(C(=O)OC(C)C)C(c2ccccc2C(F)(F)F)C(C(=O)OC(CO[N+](=O)[O-])CO[N+](=O)[O-])=C(C)N1 (stereo not given) came out in this test?
Ans: 0 (no)

Q: Hi, do you know how CCOC(=O)c1ccc(N[C@@H]2c3cc4c(cc3C(c3cc(OC)c(O)c(OC)c3)[C@H]3C(=O)OCC32)OCO4)cc1 (stereo not given in full) came out in this test?
Ans: 0 (no)

----------
Tested on: COLO 205
Assay: NCI tumour cell line growth inhibition, 48 h
Activity calls are given as the source filed them. No stated cut-off is given here; in the data, active = GI50 up to about 1.1 µM and inactive = higher.
I'd be grateful if you could share measured GI50 for these entries.

# example entries with known answers
# COMPOUND, GI50
rows = [
    ("Cc1cn(C2CC(n3cncn3)C(C(C)O)O2)c(=O)[nH]c1=O (stereo not given)", "> 100 µM (inactive)"),
    ("Nc1nc(NCC2(CO)CC2)cc(=O)[nH]1", "> 100 µM (inactive)"),
    ("COC(=O)/C=C(/C=C1/C(C#N)=C(N)N(c2ccc(Cl)cc2)C1(C)/C(=C/C(=O)OC)C(=O)OC)C(=O)OC (stereo not given)", "25.1 µM (inactive)"),
]

For every item below, please supply its GI50.
1. O=C1CSC(c2ccccc2O)N1c1nc2cc3sc(N4C(=O)CSC4c4ccccc4O)nc3cc2s1 (stereo not given)
2. COc1ccc(-c2c(C#N)c(N)nc(S)c2C#N)cc1

Ans:
1. 3.61 µM (inactive)
2. 30.1 µM (inactive)
